Biological target: Acetylcholinesterase (Mus musculus)
Sequence (P21836 whole entry): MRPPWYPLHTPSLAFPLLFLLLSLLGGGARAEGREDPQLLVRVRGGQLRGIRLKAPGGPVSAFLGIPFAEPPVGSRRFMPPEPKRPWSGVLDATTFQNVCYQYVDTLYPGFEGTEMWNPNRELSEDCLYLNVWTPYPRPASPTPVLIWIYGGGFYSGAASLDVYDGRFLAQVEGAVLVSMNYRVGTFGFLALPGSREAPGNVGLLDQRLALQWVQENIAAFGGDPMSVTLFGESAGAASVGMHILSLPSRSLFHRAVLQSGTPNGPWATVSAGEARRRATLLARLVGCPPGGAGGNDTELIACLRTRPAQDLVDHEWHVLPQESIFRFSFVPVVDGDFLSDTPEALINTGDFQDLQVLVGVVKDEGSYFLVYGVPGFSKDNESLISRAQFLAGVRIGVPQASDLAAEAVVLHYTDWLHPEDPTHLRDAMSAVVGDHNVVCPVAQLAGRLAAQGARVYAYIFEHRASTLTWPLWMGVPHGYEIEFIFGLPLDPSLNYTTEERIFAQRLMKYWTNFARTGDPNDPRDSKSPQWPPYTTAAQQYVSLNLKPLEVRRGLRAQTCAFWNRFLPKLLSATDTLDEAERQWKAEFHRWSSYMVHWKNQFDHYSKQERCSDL
Result Type: IC50 (nM)
Give bare numbers, in nM.

INSERT INTO measurements (compound_string, unit_annotation, reported_measurement) VALUES
  ('CO[C@@H]1O[C@H](CNCCCCCCCCCNc2c3c(nc4ccccc24)CCCC3)[C@H]2OC(C)(C)O[C@@H]12', 'nM', 65.5);

Below is a list of compounds. For each, state its recorded IC50.
1. CC1(C)O[C@H]2O[C@H](CNCCCCCCNc3c4c(nc5ccccc35)CCCC4)[C@H](O)[C@H]2O1
2. CO[C@@H]1O[C@H](CNCCCCCCCCNc2c3c(nc4ccccc24)CCCC3)[C@H]2OC(C)(C)O[C@@H]12
3. CC1(C)O[C@H]2O[C@H](CNCCCCCCCNc3c4c(nc5ccccc35)CCCC4)[C@H](O)[C@H]2O1
4. CC1(C)O[C@H]2O[C@H](CNCCCCCCCCCNc3c4c(nc5ccccc35)CCCC4)[C@H](O)[C@H]2O1
5. CC1(C)O[C@H]2[C@@H](O1)[C@@H](CNCCCCCCCCNc1c3c(nc4ccccc14)CCCC3)O[C@@H]1OC(C)(C)O[C@@H]12

Reply:
1. 8.7
2. 89.9
3. 84.4
4. 10.2
5. 4.8

---

Would you kindly list pIC50 for each of these compounds?
Molecular target: Cholinesterase (Mus musculus)
Sequence (Q03311 whole entry): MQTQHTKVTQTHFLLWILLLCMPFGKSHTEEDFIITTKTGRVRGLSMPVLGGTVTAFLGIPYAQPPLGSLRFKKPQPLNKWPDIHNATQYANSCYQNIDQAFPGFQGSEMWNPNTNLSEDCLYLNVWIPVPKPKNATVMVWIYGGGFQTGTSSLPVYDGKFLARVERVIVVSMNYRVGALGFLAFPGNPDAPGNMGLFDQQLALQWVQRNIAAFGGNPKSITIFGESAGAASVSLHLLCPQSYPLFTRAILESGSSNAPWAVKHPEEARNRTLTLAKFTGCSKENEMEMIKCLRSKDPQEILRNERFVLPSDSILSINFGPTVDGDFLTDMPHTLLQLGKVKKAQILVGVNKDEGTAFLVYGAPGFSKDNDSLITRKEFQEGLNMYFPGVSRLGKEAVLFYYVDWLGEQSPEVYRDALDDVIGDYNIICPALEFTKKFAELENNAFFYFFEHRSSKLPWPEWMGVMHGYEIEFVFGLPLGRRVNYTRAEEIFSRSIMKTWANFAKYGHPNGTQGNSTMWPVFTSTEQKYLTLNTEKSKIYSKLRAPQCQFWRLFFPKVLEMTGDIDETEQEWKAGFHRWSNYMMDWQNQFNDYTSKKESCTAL
Assay: Inhibition of BuChE in Swiss Webster mouse whole blood serum using butyrylthiocholine iodide as substrate preincubated for 10 mins followed substrate addition measured after 10 mins by Ellman's method
Answers are plain numbers, as −log10 of the molar value.

INSERT INTO measurements (compound_string, result_type, reported_measurement) VALUES
  ('CC1(C)O[C@H]2[C@@H](O1)[C@@H](CNCCCCCCCCNc1c3c(nc4ccccc14)CCCC3)O[C@@H]1OC(C)(C)O[C@@H]12', 'pIC50', 7.44),
  ('CO[C@@H]1O[C@H](CNCCCCCCCCCNc2c3c(nc4ccccc24)CCCC3)[C@H]2OC(C)(C)O[C@@H]12', 'pIC50', 7.19),
  ('CO[C@@H]1O[C@H](CNCCCCCCCCNc2c3c(nc4ccccc24)CCCC3)[C@H]2OC(C)(C)O[C@@H]12', 'pIC50', 7.43),
  ('CC1(C)O[C@H]2O[C@H](CNCCCCCCCCCCNc3c4c(nc5ccccc35)CCCC4)[C@H](O)[C@H]2O1', 'pIC50', 8.31),
  ('CC1(C)O[C@H]2[C@@H](O1)[C@@H](CNCCCCCCCCCNc1c3c(nc4ccccc14)CCCC3)O[C@@H]1OC(C)(C)O[C@@H]12', 'pIC50', 7.58),
  ('CC1(C)O[C@H]2O[C@H](CNCCCCCCCCCNc3c4c(nc5ccccc35)CCCC4)[C@H](O)[C@H]2O1', 'pIC50', 7.51),
  ('CC1(C)O[C@H]2O[C@H](CNCCCCCCNc3c4c(nc5ccccc35)CCCC4)[C@H](O)[C@H]2O1', 'pIC50', 7.56),
  ('c1ccc2c(NCCCCCCCNc3c4c(nc5ccccc35)CCCC4)c3c(nc2c1)CCCC3', 'pIC50', 8.04);

Below is a list of compounds. For each, state its recorded pIC50.
1. CC1(C)O[C@H]2O[C@H](CNCCCCCCCNc3c4c(nc5ccccc35)CCCC4)[C@H](O)[C@H]2O1
2. CC1(C)O[C@H]2O[C@H](CNCCCCCCCCNc3c4c(nc5ccccc35)CCCC4)[C@H](O)[C@H]2O1

Reply:
7.93
7.59

---

Entries with reported IC50 on UniProt P21836
Answers are plain numbers, in nM.

INSERT INTO measurements (compound_string, reported_measurement) VALUES
  ('CC1(C)O[C@H]2O[C@H](CNCCCCCCCCNc3c4c(nc5ccccc35)CCCC4)[C@H](O)[C@H]2O1', 5.1);

Below is a list of compounds. For each, state its recorded IC50.
1. CC1(C)O[C@H]2[C@@H](O1)[C@@H](CNCCCCCCCCCNc1c3c(nc4ccccc14)CCCC3)O[C@@H]1OC(C)(C)O[C@@H]12
2. CC1(C)O[C@H]2O[C@H](CNCCCCCCCCCCNc3c4c(nc5ccccc35)CCCC4)[C@H](O)[C@H]2O1
3. c1ccc2c(NCCCCCCCNc3c4c(nc5ccccc35)CCCC4)c3c(nc2c1)CCCC3

Reply:
1. 7.6
2. 2.2
3. 1.9

Recorded values, source ChEMBL document CHEMBL4265994.
